This collection of values is drawn from patent US20070117743A1.

Catalogue of compounds with associated CC50
Test system: K-562
Assay: SRB colorimetric assay of cell growth and viability, K-562
Assay type: cell-based, human
Settings: K-562; 48 hours exposure; read-out: LC50 K-562
Where a SMILES comes first, the peptide text is derived from it. Bridges are numbered along the chain shown (N, C = ends). [ ]: non-standard residue; d: D form. The star is where a group is joined. d(aIle) = CC[C@H](C)[C@@H](N)C(=O)O; d(aThr) = C[C@@H](O)[C@@H](N)C(=O)O; Hexanoyl(5-Me) = CC(C)CCCC(=O)*; Orn = NCCC[C@H](N)C(=O)O; Dhb = C/C=C(\N)C(=O)O
Kindly answer with a numeric value in µM, unit omitted.

{"compound": "C/C=C1\\NC(=O)[C@H](Cc2ccccc2)NC(=O)[C@@H](C(C)C)NC(=O)[C@@H]([C@@H](C)CC)NC(=O)[C@H](NC(=O)[C@H](NC(=O)[C@H](CCCN)NC(=O)[C@H]2CCCN2C(=O)[C@H](NC(=O)[C@@H](NC(=O)CNC(=O)[C@H](NC(=O)CCCC(C)C)C(C)C)C(C)C)C(C)C)[C@@H](C)CC)[C@@H](C)OC(=O)[C@H](C(C)C)NC1=O [Compound 111, [Gly^12]-KF] ({Hexanoyl(5-Me)}-[dV]GV[dV][dP][Orn][d(aIle)][d(aThr)][d(aIle)][dV]F[Dhb]V; ester 8-C)", "unitAnnotation": "µM", "CC50": 2.06}
{"compound": "C/C=C1\\NC(=O)[C@H](Cc2ccccc2)NC(=O)[C@@H](C(C)C)NC(=O)[C@@H]([C@@H](C)CC)NC(=O)[C@H](NC(=O)[C@H](NC(=O)[C@H](CCCN)NC(=O)[C@H]2CCCCN2C(=O)[C@H](NC(=O)[C@@H](NC(=O)[C@@H](NC(=O)[C@H](NC(=O)CC[C@@H](C)CC)C(C)C)[C@@H](C)O)C(C)C)C(C)C)[C@@H](C)CC)[C@@H](C)OC(=O)[C@H](C(C)C)NC1=O [Compound 60, [D-Pip^9, (4S)-MeHex^14]-KF]", "unitAnnotation": "µM", "CC50": 6.7}
{"compound": "C/C=C1\\NC(=O)[C@H](Cc2cccc(Cl)c2)NC(=O)[C@@H](C(C)C)NC(=O)[C@@H]([C@@H](C)CC)NC(=O)[C@H](NC(=O)[C@H](NC(=O)[C@H](CCCN)NC(=O)[C@H]2CCCN2C(=O)[C@H](NC(=O)[C@@H](NC(=O)[C@@H](NC(=O)[C@H](NC(=O)CCCC(C)C)C(C)C)[C@@H](C)O)C(C)C)C(C)C)[C@@H](C)CC)[C@@H](C)OC(=O)[C@H](C(C)C)NC1=O [Compound 82, [Phe(3-Cl)^3]-KF]", "unitAnnotation": "µM", "CC50": 1.59}
{"compound": "C/C=C1\\NC(=O)[C@H](Cc2ccccc2)NC(=O)[C@@H](C(C)C)NC(=O)[C@@H]([C@@H](C)CC)NC(=O)[C@H](NC(=O)[C@H](NC(=O)[C@H](CCCN)NC(=O)[C@H]2CCCN2C(=O)[C@H](NC(=O)[C@@H](NC(=O)[C@H](CC(C)C)NC(=O)[C@H](NC(=O)CCCC(C)C)C(C)C)C(C)C)C(C)C)[C@@H](C)CC)[C@@H](C)OC(=O)[C@H](C(C)C)NC1=O [Compound 113, [Leu^12]-KF] ({Hexanoyl(5-Me)}-[dV]LV[dV][dP][Orn][d(aIle)][d(aThr)][d(aIle)][dV]F[Dhb]V; ester 8-C)", "unitAnnotation": "µM", "CC50": 5.72}
{"compound": "C/C=C1\\NC(=O)[C@H](Cc2ccccc2)NC(=O)[C@@H](C(C)C)NC(=O)[C@@H]([C@@H](C)CC)NC(=O)[C@H](NC(=O)[C@H](NC(=O)[C@H](CCCN)NC(=O)[C@H]2CCCN2C(=O)[C@H](NC(=O)[C@@H](NC(=O)[C@H](CCC(=O)O)NC(=O)[C@H](NC(=O)CCCC(C)C)C(C)C)C(C)C)C(C)C)[C@@H](C)CC)[C@@H](C)OC(=O)[C@H](C(C)C)NC1=O [Compound 115, [Glu^12]-KF] ({Hexanoyl(5-Me)}-[dV]EV[dV][dP][Orn][d(aIle)][d(aThr)][d(aIle)][dV]F[Dhb]V; ester 8-C)", "unitAnnotation": "µM", "CC50": 6.64}

Query: Given C/C=C1\NC(=O)[C@H](Cc2ccccc2)NC(=O)[C@@H](C(C)C)NC(=O)[C@@H]([C@@H](C)CC)NC(=O)[C@H](NC(=O)[C@H](NC(=O)[C@H](CCCN)NC(=O)[C@H]2CCCN2C(=O)[C@H](NC(=O)[C@@H](NC(=O)[C@@H](NC(=O)[C@@H](CCCN)NC(=O)CCCC(C)C)[C@@H](C)O)C(C)C)C(C)C)[C@@H](C)CC)[C@@H](C)OC(=O)[C@H](C(C)C)NC1=O [Compound 118, [D-Orn^13]-KF] , state its recorded CC50.
Result: 6.7

Query: Fill blank: measured CC50 of the compound C/C=C1\NC(=O)[C@H](Cc2ccccc2Cl)NC(=O)[C@@H](C(C)C)NC(=O)[C@@H]([C@@H](C)CC)NC(=O)[C@H](NC(=O)[C@H](NC(=O)[C@H](CCCN)NC(=O)[C@H]2CCCN2C(=O)[C@H](NC(=O)[C@@H](NC(=O)[C@@H](NC(=O)[C@H](NC(=O)CCCC(C)C)C(C)C)[C@@H](C)O)C(C)C)C(C)C)[C@@H](C)CC)[C@@H](C)OC(=O)[C@H](C(C)C)NC1=O [Compound 81, [Phe(2-Cl)^3]-KF] is ____.
Result: 1.84

Query: Dear colleague, I am looking for the recorded CC50 of the following compound: C/C=C1\NC(=O)[C@H](Cc2ccccc2)NC(=O)[C@@H](C(C)C)NC(=O)[C@@H]([C@@H](C)CC)NC(=O)[C@H](NC(=O)[C@H](NC(=O)[C@H](CCCN)NC(=O)[C@H]2CCCN2C(=O)[C@H](NC(=O)[C@@H](NC(=O)[C@H](CCC(N)=O)NC(=O)[C@H](NC(=O)CCCC(C)C)C(C)C)C(C)C)C(C)C)[C@@H](C)CC)[C@@H](C)OC(=O)[C@H](C(C)C)NC1=O [Compound 119, [Gln^12]-KF] ({Hexanoyl(5-Me)}-[dV]QV[dV][dP][Orn][d(aIle)][d(aThr)][d(aIle)][dV]F[Dhb]V; ester 8-C)
Result: 1.99

Query: Any idea what CC50 was measured for C/C=C1\NC(=O)[C@H](Cc2ccccc2)NC(=O)[C@@H](C(C)C)NC(=O)[C@@H]([C@@H](C)CC)NC(=O)[C@H](NC(=O)[C@H](NC(=O)[C@H](CCCN)NC(=O)[C@H]2CCCN2C(=O)[C@H](NC(=O)[C@@H](NC(=O)[C@H](CCCN)NC(=O)[C@H](NC(=O)CCCC(C)C)C(C)C)C(C)C)C(C)C)[C@@H](C)CC)[C@@H](C)OC(=O)[C@H](C(C)C)NC1=O [Compound 116, [Orn^12]-KF] ({Hexanoyl(5-Me)}-[dV][Orn]V[dV][dP][Orn][d(aIle)][d(aThr)][d(aIle)][dV]F[Dhb]V; ester 8-C) ?
Result: 5.94
